- method-description: Stability in mouse plasma assessed as half life at 1 uM measured for 180 mins by LC-MS/MS analysis
- Type: ADME, cell-free
Listed here: items and their measured half-life at 1 µM.

[[record]]
compound = "Clc1ccc(COC(Cn2ccnc2)c2ccc(Cl)cc2Cl)c(Cl)c1 (centres undefined)"
quantity_name = "half-life at 1 µM"
readout_value = "> 6 h"


# half-life at 1 µM of O=c1ccc2cc(COC(Cn3ccnc3)c3ccc(Cl)cc3Cl)ccc2o1 (centres undefined) = > 6 h

# half-life at 1 µM of O=c1ccc2ccc(COC(Cn3ccnc3)c3ccc(Cl)cc3Cl)cc2o1 (centres undefined) = > 6 h

# half-life at 1 µM of O=c1oc2ccccc2cc1COC(Cn1ccnc1)c1ccc(Cl)cc1Cl (centres undefined) = 0.567 h
